Each entry below carries its reported Selectivity Index.
Assay: Selectivity index, ratio of IC50 for recombinant human DHFR to IC50 for Leishmania major DHFR in promastigote stage Leishmania major
Give the value as a plain number.

Some molecules with known Selectivity Index results, for comparison:
| molecule | Selectivity Index |
| --- | --- |
| COc1cc(Cc2cnc(N)nc2N)cc(OC)c1OCCNc1ccc(C(=O)NC(Cc2ccccc2)C(=O)O)cc1 (centres undefined) | 0.2 |
| CC1=C(C(=O)Nc2ccc(C(=O)NC(CCC(=O)O)C(=O)O)cc2)C(c2ccc([N+](=O)[O-])cc2)NC(=O)N1 (centres undefined) | 3.2 |
| CC1=C(C(=O)Nc2ccc(C(=O)NC(CCC(=O)O)C(=O)O)cc2)C(c2ccc(Cl)cc2)NC(=O)N1 (centres undefined) | 2.8 |

// query Selectivity Index value for entry COc1cc(Cc2cnc(N)nc2N)cc(OC)c1OC(=O)CNC(Cc1ccccc1)C(=O)O (centres undefined)
87.5

The reported numbers originate from ChEMBL document CHEMBL4732097.
